target-system: FAAH Rat brain (Rattus norvegicus)
Construct: from tissue; host or cells: rat brain membranes
Sequence (P97612 whole entry): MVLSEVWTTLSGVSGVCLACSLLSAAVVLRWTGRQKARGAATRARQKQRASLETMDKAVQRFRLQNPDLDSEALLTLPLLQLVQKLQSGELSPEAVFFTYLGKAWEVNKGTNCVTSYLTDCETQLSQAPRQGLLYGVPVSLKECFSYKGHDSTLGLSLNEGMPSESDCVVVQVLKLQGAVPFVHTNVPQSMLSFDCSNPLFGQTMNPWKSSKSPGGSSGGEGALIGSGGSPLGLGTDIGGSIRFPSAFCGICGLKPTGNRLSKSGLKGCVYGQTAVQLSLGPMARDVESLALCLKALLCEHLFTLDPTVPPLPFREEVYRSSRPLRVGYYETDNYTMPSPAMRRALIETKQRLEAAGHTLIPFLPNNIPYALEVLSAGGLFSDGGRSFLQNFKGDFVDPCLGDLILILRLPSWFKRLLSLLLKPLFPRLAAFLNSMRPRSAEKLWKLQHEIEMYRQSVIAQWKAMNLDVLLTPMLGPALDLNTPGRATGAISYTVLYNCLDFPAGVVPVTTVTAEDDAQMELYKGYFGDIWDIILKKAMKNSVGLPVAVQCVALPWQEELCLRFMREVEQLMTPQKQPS
method-description: FAAH inhibitory activity, rat brain membranes, [14C]-AEA hydrolysis
Type: biochemical
test-parameters: Table 1; rat brain; read-out: FAAH Rat brain IC50
readout-name: log10(IC50) (log10 of the value in nM)
Lab note - IC50 converted to log10 from values in nM.

INSERT INTO measurements (compound, target_system, observed_value) VALUES
  ('COc1ccc(CCC(=O)NS(=O)(=O)C(F)(F)F)c(CN2CCC[C@H]2c2nc(C(=O)NCCCCC3CCCCC3)co2)c1 [Example 12c]', 'FAAH Rat brain (Rattus norvegicus)', 2.30),
  ('O=C(CCc1ccc(F)cc1CN1CCC[C@H]1c1nc(C(=O)NCCCCC2CCCCC2)co1)NS(=O)(=O)C(F)(F)F [Example 12a]', 'FAAH Rat brain (Rattus norvegicus)', 3.00),
  ('O=C(CCc1cc2c(cc1CN1CCC[C@H]1c1nc(C(=O)NCCCCC3CCCCC3)co1)OCO2)NS(=O)(=O)C(F)(F)F [Example 12d]', 'FAAH Rat brain (Rattus norvegicus)', 2.87);

Ask: Annotate the compound CCCCCCCCNC(=O)c1coc([C@@H]2CCCN2Cc2cc(OC)ccc2CCC(=O)NS(=O)(=O)C(F)(F)F)n1 [Example 12f] with its measured log10(IC50).
Result: 2.70

Ask: Report log10(IC50), nothing else, for this compound: O=C(CCc1ccc(Cl)cc1CN1CCC[C@H]1c1nc(C(=O)NCCCCC2CCCCC2)co1)NS(=O)(=O)C(F)(F)F [Example 12b]
Result: 3.65
